- PROTOCOL DETAILS: Toxicokinetics of PNA5 in Beagle dog plasma
- REPORTED CONDITIONS: both, Beagle, dog, plasma, sc, 1 mg/kg/day, Cmax, Beagle dogs, plasma, s.c. once daily 1 mg/kg/day, day 1, sexes combined, mean ± SD, n = 6, UHPLC-MS/MS, noncompartmental
Peptide text beside a SMILES is read from it. * marks the point of attachment. βGlc = OC[C@H]1O[C@@H](*)[C@H](O)[C@@H](O)[C@@H]1O
MEASURED PARAMETER: Cmax (ng/mL)
Report the figure in ng/mL without appending any unit label.

Name the recorded Cmax of the item CC[C@H](C)[C@H](NC(=O)[C@H](Cc1ccc(O)cc1)NC(=O)[C@@H](NC(=O)[C@H](CCCNC(=N)N)NC(=O)[C@@H](N)CC(=O)O)C(C)C)C(=O)N[C@@H](Cc1c[nH]cn1)C(=O)N[C@@H](CO[C@@H]1O[C@H](CO)[C@@H](O)[C@H](O)[C@H]1O)C(N)=O [PNA5, Ang-1–6-Ser-O-Glu-NH2] (H-DRVYIHS(βGlc)-NH2) in your answer.
110
